System: CCRF-CEM leukemia
Assay: NCI-60 one-dose screen, 48 h (100 = growth as untreated, 0 = no growth, -100 = all killed)
Conditions: 10 µM unless noted
Description: Growth inhibition of the CCRF-CEM human tumor cell line is measured as a screen for anti-cancer activity. Cells are grown in 96 well plates and exposed to the test compound for 48 hours. Compounds are tested at a single concentration, which is 10^-5 M for most compounds. The reported endpoint is percent growth (GI% or GIPRCNT), where numbers from 0 - 100% represent growth inhibition, and numbers from -100% - 0 represent cell death. For example, a value of 40 represents 60% growth inhibition. […]
About 83,000 compounds went through this panel and 20% of them were active in at least one assay; those are over-represented in the sample as a whole. Active and inactive are the calls of the source. Rule for the calls: active = growth percent below 10; inactive = the rest.
Exercise: for every item that follows, state its recorded growth.

Task item: # growth lookup, item CC(C)c1ccc2c(N)c(C(=O)Nc3ccc(C(F)(F)F)cn3)sc2n1
Reply: 34.1% (inactive)

Task item: Look up growth: COc1ccc(-c2cc(C(=O)NCc3ccccc3)nn2-c2ccc(S(C)(=O)=O)cc2)cc1OC
Reply: 101% (inactive)

Task item: Which value of growth has been reported for N/C(=N\c1nc2ccccc2s1)NC(=O)NCCCCCCO in the records?
Reply: 60.3% (inactive)

Task item: Entry C/C(=N\N=C\c1cc([N+](=O)[O-])ccc1Cl)c1ccc2c(c1)Nc1ccccc1S2 : reported growth = ?
Reply: 55% (inactive)

Task item: What value of growth has been recorded for this entry: C=C1CC[C@@H]2[C@]3(C)COC(c4cn(-c5ccccc5)nc4-c4cccc([N+](=O)[O-])c4)O[C@@H]3CC[C@@]2(C)[C@@H]1C/C=C1/C(=O)OC[C@H]1O (stereo partly specified)
Reply: -1.81% (active)

Task item: Request the reported growth associated with O=C(NN1C(=O)/C(=C/C=C/c2ccc([N+](=O)[O-])o2)SC1=S)c1ccc(Cl)cc1
Reply: -14.7% (active)

Task item: Param item = COc1ccc(/C=C2\C(=O)Nc3ccc(Cl)cc32)cc1OCc1ccccn1 ; retrieve measured growth.
Reply: 50.8% (inactive)

Task item: Can you share its growth? I mean this compound: CCOC(=O)/C=C/c1cccc2c1C(=O)NC(C)(c1cc3cc(Br)ccc3oc1=O)N2 (stereo unspecified)
Reply: 36.8% (inactive)

Task item: Please look up its growth: Cn1cc(-c2nnc(N)nc2-c2c[nH]c3ccc(Br)cc23)c2cc(Br)cnc21
Reply: 28% (inactive)

Task item: Can you look up the measured growth of O=C(NNc1nc2cc(F)ccc2n2c(CN3CCCCC3)ccc12)c1cnccn1 for me?
Reply: -16.2% (active)

Task item: What does the record list as growth for CSc1ccccc1NC(=O)c1ccc2nn(/C(C#N)=C/c3ccccn3)nc2c1 ?
Reply: -34.7% (active)

Task item: Which value of growth has been reported for CCOC(=O)C1=C(N)N(c2ccccc2)C2=C(C(=O)CC(C)(C)C2)C1c1ccc(Cl)cc1Cl (stereo unspecified) in the records?
Reply: 19.3% (inactive)

Task item: So what does the record say about growth for O=C(/C=C/c1ccc(O)c(O)c1)NC1CCOC1O (stereo unspecified) ?
Reply: 96.4% (inactive)

Task item: Look up growth: CN(C)c1nc(NCCNS(=O)(=O)c2ccc(C(=O)/C=C/c3ccc(F)cc3)cc2)nc(Nc2ccc(F)cc2)n1
Reply: 4.06% (active)

Task item: Please give the measured growth for this compound: O=c1[nH]c2ccccc2cc1CSc1nccc(-c2ccc3ccccc3c2)n1
Reply: 33.1% (inactive)

Task item: Please report the recorded growth for CSc1ccc(C(=O)Nc2ccc3nnn(/C(C#N)=C/c4ccccn4)c3c2)cc1 .
Reply: 12.6% (inactive)

Task item: What value of growth has been recorded for this entry: Brc1ccc(-c2n(Cc3ccc4ccccc4c3)c(-c3ccccc3)c(-c3ccccc3)[n+]2Cc2ccc3ccccc3c2)cc1
Reply: -10.5% (active)

Task item: Given the compound O=C(Nc1ccccc1)N1CCN(c2cc(-c3cn(-c4ccccc4)nc3-c3cccc(O)c3)ccn2)CC1 , what is its reported growth?
Reply: 36.8% (inactive)

Task item: Given the entry C#CCOc1cc(N(CC)CC)ccc1C(C(=O)NC(C)(C)C)N(C(=O)C1CCc2cc(F)ccc2O1)c1cc(C)cc(C)c1 (stereo unspecified) , report its measured growth.
Reply: 36.3% (inactive)

Task item: // growth lookup, key: Nc1n[nH]c2cccc(C#Cc3cccc(NC(=O)c4cccc(Cl)c4)c3)c12
Reply: 15% (inactive)

Task item: # get_value(readout='growth', item= Cn1cc(-c2cc(N)n3nc(-c4c[nH]c5ccccc45)cc3n2)c2cccnc21 )
Reply: -21.5% (active)

Task item: I would be grateful if you could share the reported growth for N#Cc1c(-c2ccc(Br)cc2)nc2n[nH]c(-c3ccc(Br)cc3)c2c1-c1ccc(F)cc1 .
Reply: 102% (inactive)

Task item: Consider the compound shown here: COc1cc2c3c(n(CCCN4CCC[C@@H]4CO)c(=O)c2cc1OC)-c1cc2c(cc1C3=O)OCO2 What is its recorded growth?
Reply: 6.04% (active)

Task item: I'd like to know its growth. The compound in question is COc1ccc2nc(Nc3cccc(NC(=O)c4ccc(CN5CCCN(C)CC5)c(C(F)(F)F)c4)c3)ccc2c1
Reply: -43.6% (active)

Task item: For COc1ccc(C(=O)/C=C/c2ccc3ccccc3c2)cc1S(N)(=O)=O , what is its reported growth?
Reply: 5.96% (active)

Task item: Given Cc1cc2c(cc1Cl)C(=O)/C(=C/c1ccc(F)cc1)O2 , state its recorded growth.
Reply: 94.5% (inactive)

Task item: Suppose we examine the compound O=C(/C=C/Nc1ccc(Cl)cc1)c1ccc2c(c1)Nc1ccccc1S2 ; what growth value has been reported?
Reply: 81.1% (inactive)

Task item: Tell me the measured growth of COc1ccc(C(=O)Nc2n[nH]c(Nc3ccccc3)c2C#N)cc1 , please.
Reply: 114% (inactive)

Task item: Please look up its growth: CC(=O)OC[C@@]1(C)C2CC[C@]3(C)C(CC=C4C5CC(C)(C)CC[C@]5(C(=O)Nc5cccc(C)c5)CC[C@]43C)[C@@]2(C)C[C@@H](OC(C)=O)[C@@H]1OC(C)=O (stereo partly specified)
Reply: 30.4% (inactive)

Task item: Sample Cc1ccc(C2CC(c3ccc(S(=O)(=O)NCCNc4nc(Nc5ccc(F)cc5)nc(N(C)C)n4)cc3)=Nc3c(N)nc(N)nc3N2)cc1 (stereo unspecified) — what was its growth?
Reply: 18.4% (inactive)

Task item: Consider the compound O=c1onc(-c2cc3ccccc3nc2Cl)n1-c1cccc2ccccc12 and give its measured growth.
Reply: 33% (inactive)

Task item: I'd like to know its growth. The compound in question is COCOc1cc2c(=O)c(C)c(C(=O)N[C@@H](Cc3ccccc3)C(O)C(=O)NCc3ccccc3)oc2cc1OC (stereo partly specified)
Reply: 96.1% (inactive)

Task item: For the compound shown here, COc1ccc(Cc2nn(CC(=O)N/N=C/c3ccc(F)cc3)c(=O)c3c(C)noc23)cc1 , give the reported growth.
Reply: 70.4% (inactive)

Task item: Would you kindly share the measured growth for CSc1ccc(NC(=O)c2ccc3nnn(/C(C#N)=C/c4ccccn4)c3c2)cc1 ?
Reply: 6.95% (active)

Task item: Requested field: growth. Item: CC1(C)CC[C@]2(C(=O)O)CC[C@]3(C)C(=CCC4[C@@]5(C)C[C@@H](O)[C@@H]6OC(c7cccc(Br)c7)OC[C@@]6(C)C5CC[C@]43C)C2C1 (stereo partly specified)
Reply: 27.5% (inactive)

Task item: Requested read-out: growth. Entry: CC(C)CSc1nc(NCCc2c[nH]c3ccccc23)c(C#N)c(-c2ccccc2)n1
Reply: 30.2% (inactive)
